Reference for the values: BigSolDB 2.1

- settings: in n-hexane, 298.15 K
readout.name: solubility (mole fraction)
Please state the value as a number alone, without comment.

**Q:** Consider the compound "C[C@@H]1CC[C@H]2[C@@H](C)C(=O)O[C@@H]3O[C@@]4(C)CC[C@@H]1[C@]32OO4" . State its measured solubility (mole fraction).
**A:** 0.000132

###

- settings: in MTBE, 298.15 K
readout.name: solubility (mole fraction)
Reply: number alone, nothing else.

**Q:** Quote solubility (mole fraction) reported for "C[C@@H]1CC[C@H]2[C@@H](C)C(=O)O[C@@H]3O[C@@]4(C)CC[C@@H]1[C@]32OO4" please.
**A:** 0.00285

###

- settings: in toluene, 323.15 K
readout.name: solubility (mole fraction)
Form rule: numeric answer, no unit written next to it.

**Q:** Report solubility (mole fraction), nothing else, for this compound: "C[C@@H]1CC[C@H]2[C@@H](C)C(=O)O[C@@H]3O[C@@]4(C)CC[C@@H]1[C@]32OO4"
**A:** 0.131

###

- settings: in 2-butanone, 289.15 K
readout.name: solubility (mole fraction)

**Q:** Tell me solubility (mole fraction) reported for "C[C@@H]1CC[C@H]2[C@@H](C)C(=O)O[C@@H]3O[C@@]4(C)CC[C@@H]1[C@]32OO4"
**A:** 0.0212

###

- settings: in acetone, 298.15 K
readout.name: solubility (mole fraction)
Just the number, please, no unit after it.

**Q:** Return reported solubility (mole fraction). Input molecule: "C[C@@H]1CC[C@H]2[C@@H](C)C(=O)O[C@@H]3O[C@@]4(C)CC[C@@H]1[C@]32OO4"
**A:** 0.00848

###

- settings: in acetonitrile, 314.15 K
readout.name: solubility (mole fraction)
Reply with just the number.

**Q:** Assign solubility (mole fraction) to the following record: "C[C@@H]1CC[C@H]2[C@@H](C)C(=O)O[C@@H]3O[C@@]4(C)CC[C@@H]1[C@]32OO4"
**A:** 0.00424

###

- settings: in n-heptane, 304.15 K
readout.name: solubility (mole fraction)
Reply: number alone, nothing else.

**Q:** Consider the molecule "C[C@@H]1CC[C@H]2[C@@H](C)C(=O)O[C@@H]3O[C@@]4(C)CC[C@@H]1[C@]32OO4" and give its recorded solubility (mole fraction).
**A:** 0.000202

###

- settings: in methanol, 319.15 K
readout.name: solubility (mole fraction)

**Q:** Quickly give me recorded solubility (mole fraction) for "C[C@@H]1CC[C@H]2[C@@H](C)C(=O)O[C@@H]3O[C@@]4(C)CC[C@@H]1[C@]32OO4"
**A:** 0.00508

###

- settings: in 2-butanone, 319.15 K
readout.name: solubility (mole fraction)
Answer with a bare number; do not write a unit.

**Q:** Input "C[C@@H]1CC[C@H]2[C@@H](C)C(=O)O[C@@H]3O[C@@]4(C)CC[C@@H]1[C@]32OO4" , output reported solubility (mole fraction).
**A:** 0.0919

###

- settings: in 2-butanone, 298.15 K
readout.name: solubility (mole fraction)
// keep it numeric: no unit symbol after the value

**Q:** Could you please provide reported solubility (mole fraction) for "C[C@@H]1CC[C@H]2[C@@H](C)C(=O)O[C@@H]3O[C@@]4(C)CC[C@@H]1[C@]32OO4" ? Thanks!
**A:** 0.0337

###

- settings: in n-butanol, 309.15 K
readout.name: solubility (mole fraction)
Respond with the number and no other words.

**Q:** Give the reported solubility (mole fraction) for this compound. "C[C@@H]1CC[C@H]2[C@@H](C)C(=O)O[C@@H]3O[C@@]4(C)CC[C@@H]1[C@]32OO4"
**A:** 0.00563

###

- settings: in n-heptane, 319.15 K
readout.name: solubility (mole fraction)
Output spec: single numeric token, no unit.

**Q:** Give solubility (mole fraction) for the following compound: "C[C@@H]1CC[C@H]2[C@@H](C)C(=O)O[C@@H]3O[C@@]4(C)CC[C@@H]1[C@]32OO4"
**A:** 0.000531

###

- settings: in n-butanol, 289.15 K
readout.name: solubility (mole fraction)
Respond with the number and no other words.

**Q:** Give reported solubility (mole fraction) value for "C[C@@H]1CC[C@H]2[C@@H](C)C(=O)O[C@@H]3O[C@@]4(C)CC[C@@H]1[C@]32OO4"
**A:** 0.00127

###

- settings: in 2-butanone, 323.15 K
readout.name: solubility (mole fraction)
// no unit string in output, number only

**Q:** Determine its reported solubility (mole fraction): "C[C@@H]1CC[C@H]2[C@@H](C)C(=O)O[C@@H]3O[C@@]4(C)CC[C@@H]1[C@]32OO4"
**A:** 0.117

###

- settings: in ethanol, 314.15 K
readout.name: solubility (mole fraction)
Please reply with the number alone, leaving off any unit.

**Q:** Look up and report measured solubility (mole fraction) for this entry: "C[C@@H]1CC[C@H]2[C@@H](C)C(=O)O[C@@H]3O[C@@]4(C)CC[C@@H]1[C@]32OO4"
**A:** 0.01

###

- settings: in ethyl acetate, 314.15 K
readout.name: solubility (mole fraction)
The answer should be written as a number, with no unit following it.

**Q:** State, in one line, measured solubility (mole fraction) of "C[C@@H]1CC[C@H]2[C@@H](C)C(=O)O[C@@H]3O[C@@]4(C)CC[C@@H]1[C@]32OO4"
**A:** 0.0383

###

- settings: in methanol, 298.15 K
readout.name: solubility (mole fraction)
// return a plain number; no unit text

**Q:** Annotate the molecule "C[C@@H]1CC[C@H]2[C@@H](C)C(=O)O[C@@H]3O[C@@]4(C)CC[C@@H]1[C@]32OO4" with its measured solubility (mole fraction).
**A:** 0.00142

###

- settings: in acetonitrile, 284.15 K
readout.name: solubility (mole fraction)
Field format: numeric only.

**Q:** For the molecule "C[C@@H]1CC[C@H]2[C@@H](C)C(=O)O[C@@H]3O[C@@]4(C)CC[C@@H]1[C@]32OO4" , give its reported solubility (mole fraction).
**A:** 0.00084

###

- settings: in n-hexane, 319.15 K
readout.name: solubility (mole fraction)
When you answer, write just the number.

**Q:** Answer with the recorded solubility (mole fraction) for the compound listed here: "C[C@@H]1CC[C@H]2[C@@H](C)C(=O)O[C@@H]3O[C@@]4(C)CC[C@@H]1[C@]32OO4"
**A:** 0.000534

###

- settings: in 2-butanone, 309.15 K
readout.name: solubility (mole fraction)
Answer field: number only, no words.

**Q:** Supply reported solubility (mole fraction) belonging to this molecule: "C[C@@H]1CC[C@H]2[C@@H](C)C(=O)O[C@@H]3O[C@@]4(C)CC[C@@H]1[C@]32OO4"
**A:** 0.0585

###

- settings: in ethanol, 295.15 K
readout.name: solubility (mole fraction)
Write no unit; give the number alone.

**Q:** Please indicate solubility (mole fraction) recorded for "C[C@@H]1CC[C@H]2[C@@H](C)C(=O)O[C@@H]3O[C@@]4(C)CC[C@@H]1[C@]32OO4"
**A:** 0.00412

###

- settings: in acetone, 319.15 K
readout.name: solubility (mole fraction)
Just the number, please, no unit attached.

**Q:** Quote solubility (mole fraction) reported for "C[C@@H]1CC[C@H]2[C@@H](C)C(=O)O[C@@H]3O[C@@]4(C)CC[C@@H]1[C@]32OO4" please.
**A:** 0.0236

###

- settings: in n-heptane, 309.15 K
readout.name: solubility (mole fraction)
Would you mind answering with just the numeric figure?

**Q:** Answer with reported solubility (mole fraction) of "C[C@@H]1CC[C@H]2[C@@H](C)C(=O)O[C@@H]3O[C@@]4(C)CC[C@@H]1[C@]32OO4"
**A:** 0.000282

###

- settings: in acetonitrile, 298.15 K
readout.name: solubility (mole fraction)
Enter the number alone.

**Q:** Supply measured solubility (mole fraction) of "C[C@@H]1CC[C@H]2[C@@H](C)C(=O)O[C@@H]3O[C@@]4(C)CC[C@@H]1[C@]32OO4" in your reply.
**A:** 0.00184

###

- settings: in 2-butanone, 284.15 K
readout.name: solubility (mole fraction)
No unit in the answer, please; the number alone is enough.

**Q:** Given the compound "C[C@@H]1CC[C@H]2[C@@H](C)C(=O)O[C@@H]3O[C@@]4(C)CC[C@@H]1[C@]32OO4" , write its reported solubility (mole fraction).
**A:** 0.0163

###

- settings: in n-heptane, 289.15 K
readout.name: solubility (mole fraction)
Answer with a number only.

**Q:** Return value of solubility (mole fraction) for input "C[C@@H]1CC[C@H]2[C@@H](C)C(=O)O[C@@H]3O[C@@]4(C)CC[C@@H]1[C@]32OO4" , no commentary.
**A:** 7.2e-05

###

- settings: in MTBE, 284.15 K
readout.name: solubility (mole fraction)
Form: value (number only, do not type unit).

**Q:** For "C[C@@H]1CC[C@H]2[C@@H](C)C(=O)O[C@@H]3O[C@@]4(C)CC[C@@H]1[C@]32OO4" , write its solubility (mole fraction).
**A:** 0.00109
